Data provenance is ChEMBL document CHEMBL1201862.

Tested on: LOX IMVI
ASSAY_OVERVIEW: NCI tumour cell line growth inhibition, 48 h
Calls of active or inactive are those of the source. Cut-off read from the data, not from the text of the source: active = GI50 up to about 1.1 µM and inactive = higher.
ATTRIBUTE_MEASURED: GI50

COMPOUND: CN1CCN(c2ccc3[nH]c(-c4ccc5[nH]c(-c6ccc(O)cc6)nc5c4)nc3c2)CC1
GI50: 85.5 µM (inactive)

COMPOUND: C=C1C(=O)O[C@@H]2C[C@]3(C)[C@@H](C[C@H]12)[C@](C)(O)CC[C@@H]3O
GI50: 55.7 µM (inactive)

COMPOUND: CNC(=O)OCc1nc(SC)n(C)c1COC(=O)NC
GI50: 133 µM (inactive)

Ask: Query: GI50; subject: `N#Cc1ccc(OCc2nc3cc(C(F)(F)F)ccc3nc2-c2ccccc2)cc1`
Result: > 100 µM (inactive)

Ask: Query: GI50; subject: `O=c1n(-c2ccccc2)c(=O)n2n1C1C=CC2CCCCCC1`
Result: > 100 µM (inactive)

Ask: Query: GI50; subject: CN1C(c2ccccc2)CC(C)(O)CC1c1ccccc1 (stereo unspecified)
Result: > 100 µM (inactive)

----------
Quick reference for GI50 among some compounds
Tested on: UACC-257
ASSAY_OVERVIEW: NCI tumour cell line growth inhibition, 48 h
Activity calls are given as the source filed them. Cut-off read from the data, not from the text of the source: active = GI50 up to about 1.1 µM and inactive = higher.

COMPOUND: Cc1ccc(C(=O)CC2=Nc3nnc(CCCCCCCc4nnc5n4C(=O)C(CC(=O)c4ccc(C)cc4)=N5)n3C2=O)cc1
ATTRIBUTE_MEASURED: GI50
RESULT: > 100 µM (inactive)

Ask: Query: GI50; subject: ClC1=NN=C(c2c[nH]c3ccccc23)CC1NCc1ccccc1 (configuration not stated)
Result: > 100 µM (inactive)

Ask: Query: GI50; subject: CN(CC(=O)N1CC(CCl)c2ccc([N+](=O)[O-])cc21)CC(=O)N1CC(CCl)c2ccc([N+](=O)[O-])cc21 (configuration not stated)
Result: > 100 µM (inactive)

Ask: Query: GI50; subject: COc1ccc(N2C(=O)C3c4[nH]c5ccccc5c4C4CCC(C(C)(C)C)CC4C3C2=O)c(C)c1 (configuration not stated)
Result: > 100 µM (inactive)

Ask: Query: GI50; subject: `O=c1[nH]nc(-c2ccccc2)n1/N=C/c1c(O)ccc2ccccc12`
Result: 68.5 µM (inactive)

Ask: Query: GI50; subject: `O=C(OCc1ccccc1CN1CCOCC1)c1ccc(Br)cc1`
Result: 43.2 µM (inactive)

Ask: Query: GI50; subject: `CCOC(=O)NC(C(F)(F)F)(C(F)(F)F)P(=O)(OC(C)C)OC(C)C`
Result: > 100 µM (inactive)

Ask: Query: GI50; subject: `CC1=C(C(=O)NCc2ccccc2)C(c2ccccc2[N+](=O)[O-])C(C(=O)NCc2ccccc2)=C(C)N1`
Result: 13.3 µM (inactive)

----------
Tested on: MOLT-4
ASSAY_OVERVIEW: NCI tumour cell line growth inhibition, 48 h
The source made the active and inactive calls. Rule as the data show it: active = GI50 up to about 1.1 µM and inactive = higher.
ATTRIBUTE_MEASURED: GI50

Ask: Give the reported GI50 for O=C1C(Cl)C(c2cc3cc(Br)ccc3nc2Cl)N1c1c(Cl)cccc1Cl (stereo not given) (system: MOLT-4).
Result: 4.9 µM (inactive)

Ask: Give the reported GI50 for `CC1(n2nc(-c3ccccc3)n(-c3ccccc3)c2=O)CSC1` (system: MOLT-4).
Result: > 100 µM (inactive)

Ask: Give the reported GI50 for CCCCNC(=S)OCCC(C)CCCC(C)C (stereo not given) (system: MOLT-4).
Result: > 100 µM (inactive)

Ask: Give the reported GI50 for C1CC[C@H]2SSC3CCCC[C@H]3SSC2C1 (stereo not given in full) (system: MOLT-4).
Result: > 100 µM (inactive)

Ask: Give the reported GI50 for `COc1ccc(S(=O)(=O)N/N=C/C(=O)O)cc1` (system: MOLT-4).
Result: 193 µM (inactive)

Ask: Give the reported GI50 for C=C(C)C1CC=C(C)C(=O)C1 (stereo not given) (system: MOLT-4).
Result: > 100 µM (inactive)

Ask: Give the reported GI50 for `C=C1C(=O)O[C@@H]2C[C@]3(C)[C@@H](C[C@H]12)[C@](C)(O)CC[C@@H]3O` (system: MOLT-4).
Result: 57.1 µM (inactive)

Ask: Give the reported GI50 for `CC[C@@H](/C=C\CCC1(C[C@H](O)CCC=C(C)C)OCCO1)O[Si](C(C)C)(C(C)C)C(C)C` (system: MOLT-4).
Result: 19.3 µM (inactive)

Ask: Give the reported GI50 for COC1=CC2(C=CC1=O)CCNC1=C2C(=O)c2nc[nH]c2C1=O (stereo not given) (system: MOLT-4).
Result: > 100 µM (inactive)

Ask: Give the reported GI50 for `O=c1[nH]nc(-c2ccccc2)n1/N=C/c1c(O)ccc2ccccc12` (system: MOLT-4).
Result: > 100 µM (inactive)

Ask: Give the reported GI50 for COC(=O)C1Cc2ccc(C)cc2C1=O (stereo not given) (system: MOLT-4).
Result: > 100 µM (inactive)

Ask: Give the reported GI50 for CC(C(=O)O)c1ccc(-n2nnc3c(=O)[nH][nH]c(=O)c32)cc1 (stereo not given) (system: MOLT-4).
Result: > 100 µM (inactive)

Ask: Give the reported GI50 for COC1=C(OC)C(O)(c2ccccc2)C1=O (stereo not given) (system: MOLT-4).
Result: > 100 µM (inactive)

Ask: Give the reported GI50 for O=C(O)C(CS)Nc1c2ccccc2nc2ccccc12 (stereo not given) (system: MOLT-4).
Result: 38.3 µM (inactive)

Ask: Give the reported GI50 for `O=c1ccc2cc(O)c(O)cc2o1` (system: MOLT-4).
Result: > 100 µM (inactive)

Ask: Give the reported GI50 for `COc1cccc(CCn2c(N)c(-c3ccccc3)c3ccc([N+](=O)[O-])cc3c2=O)c1` (system: MOLT-4).
Result: 6.7 µM (inactive)
